assay-remarks: Slurry stability study at room temperature (25° C.), 4 weeks, resulting form by FTIR
Type: physicochemical
details: slurried in methyl THF, 25° C., 4 weeks, FTIR

- compound: "COc1ccc(C(=O)NC2(C(=O)O)Cc3ccccc3C2)cc1OCCc1cccc(C)c1 [Forms 1, 2, 3]"
  Final form after slurry: "Form 1"
- compound: "COc1ccc(C(=O)NC2(C(=O)O)Cc3ccccc3C2)cc1OCCc1cccc(C)c1 [Form 1]"
  Final form after slurry: "Form 1"

###

assay-remarks: Estimated hot solubility in solvents at elevated temperature (approximately solvent boiling point)
Assay type: physicochemical
details: 69 °C, organic solvent or mixture, thermodynamic from solid, Hexane, read-out: Hot Solubility (est)
readout-name: solubility

Ask: Any idea what solubility was measured for COc1ccc(C(=O)NC2(C(=O)O)Cc3ccccc3C2)cc1OCCc1cccc(C)c1 ?
Result: < 2000 µg/mL

###

assay-remarks: Estimated hot solubility in solvents at elevated temperature (approximately solvent boiling point)
Assay type: physicochemical
details: 82 °C, organic solvent or mixture, thermodynamic from solid, 2-Propanol, read-out: Hot Solubility (est)
readout-name: solubility

Ask: Any idea what solubility was measured for COc1ccc(C(=O)NC2(C(=O)O)Cc3ccccc3C2)cc1OCCc1cccc(C)c1 [Compound I] ?
Result: 7 to 10 mg/mL

###

Entries and their Concentration (solubility)
assay-remarks: Solubility of polymorphs at pH 7.4 in phosphate buffer at 25° C.
Type: physicochemical
details: pH 7.4 phosphate buffer, 3 hr
Just the number please, in µg/mL, no unit attached.

Example results:
- molecule: "COc1ccc(C(=O)NC2(C(=O)O)Cc3ccccc3C2)cc1OCCc1cccc(C)c1 [Form 3]"
  quantity-unit: "µg/mL"
  Concentration (solubility): 95
- molecule: "COc1ccc(C(=O)NC2(C(=O)O)Cc3ccccc3C2)cc1OCCc1cccc(C)c1 [Form 4]"
  quantity-unit: "µg/mL"
  Concentration (solubility): 105

Ask: Any idea what Concentration (solubility) was measured for COc1ccc(C(=O)NC2(C(=O)O)Cc3ccccc3C2)cc1OCCc1cccc(C)c1 [Form 2] ?
Result: 43

Ask: Any idea what Concentration (solubility) was measured for COc1ccc(C(=O)NC2(C(=O)O)Cc3ccccc3C2)cc1OCCc1cccc(C)c1 [Form 1] ?
Result: 42

###

assay-remarks: Solubility of Compound I in solvents at room temperature (about 25° C.)
Assay type: physicochemical
details: organic solvent or mixture, thermodynamic from solid, hexane, read-out: Solubility (estimated)
readout-name: solubility

Ask: Any idea what solubility was measured for COc1ccc(C(=O)NC2(C(=O)O)Cc3ccccc3C2)cc1OCCc1cccc(C)c1 [Compound I] ?
Result: < 2000 µg/mL

###

assay-remarks: Slurry stability study at room temperature (25° C.), 4 weeks, resulting form by FTIR
Assay type: physicochemical
details: slurried in MEK, 25° C., 4 weeks, FTIR

- compound: "COc1ccc(C(=O)NC2(C(=O)O)Cc3ccccc3C2)cc1OCCc1cccc(C)c1 [Forms 1, 2, 3]"
  Final form after slurry: "Form 1"
- compound: "COc1ccc(C(=O)NC2(C(=O)O)Cc3ccccc3C2)cc1OCCc1cccc(C)c1 [Form 1]"
  Final form after slurry: "Form 1"

###

assay-remarks: Estimated hot solubility in solvents at elevated temperature (approximately solvent boiling point)
Assay type: physicochemical
details: 100 °C, thermodynamic from solid, Water, read-out: Hot Solubility (est)
Experimental: Compound I was dissolved in a variety of solvents at elevated temperature (approximately at solvent boiling point) to provide solutions of Compound I with a maximum concentration of 15 mg/mL. The input material in these experiments was a mixture of polymorphic forms 1, 2, and 3. When concentrations of Compound I was greater than 2 mg/mL, the solutions were filtered and evaporated at 25° C. to isolate the solid.
readout-name: solubility

Ask: Any idea what solubility was measured for COc1ccc(C(=O)NC2(C(=O)O)Cc3ccccc3C2)cc1OCCc1cccc(C)c1 ?
Result: < 2000 µg/mL
